- TEST TARGET: Adenosine receptor A1 (Homo sapiens)
- Sequence (whole entry): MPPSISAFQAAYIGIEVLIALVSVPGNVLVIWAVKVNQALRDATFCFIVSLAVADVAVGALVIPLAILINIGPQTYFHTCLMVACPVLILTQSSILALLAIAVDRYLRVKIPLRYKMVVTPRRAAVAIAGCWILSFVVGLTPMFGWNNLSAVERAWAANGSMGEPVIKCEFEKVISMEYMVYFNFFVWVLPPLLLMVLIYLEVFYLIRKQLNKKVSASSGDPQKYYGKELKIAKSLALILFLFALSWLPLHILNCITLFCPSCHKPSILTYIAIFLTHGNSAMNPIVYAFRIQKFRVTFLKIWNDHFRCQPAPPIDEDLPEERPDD
- TEST NAME: Displacement of [3H]DPCPX from human recombinant A1 receptor expressed in CHOA1 cell membranes at 1 uM incubated for 60 mins by radioligand binding competition assay relative to control
METRIC: inhibition (%)

Below, 3 compounds whose answers are already recorded.
CC1=C(C(=O)OC(C)C)C(c2ccsc2)n2c(nc3ccccc32)N1 (stereo not given) | 11
CC1=C(C(=O)OC(C(F)(F)F)C(F)(F)F)C(c2ccoc2)n2c(nc3ccccc32)N1 (racemic) | 24
CC1=C(C(=O)O[C@H](C)C(F)(F)F)[C@H](c2ccco2)n2c(nc3ccccc32)N1 | 2

1 = CCOC(=O)C1=C(C)Nc2nc3ccccc3n2C1c1ccco1 (stereo not given)
2 = CCOC(=O)C1=C(C)Nc2nc3ccccc3n2C1c1cccs1 (stereo not given)
# argmax over inhibition for candidates 1 and 2 Refer to your chosen item by its label in the answer.
2
